Quick reference: EC50 of the listed items.
# targetEntity: Peroxisome proliferator-activated receptor delta (Homo sapiens, UniProt Q03181)
# Sequence (Q03181 whole entry): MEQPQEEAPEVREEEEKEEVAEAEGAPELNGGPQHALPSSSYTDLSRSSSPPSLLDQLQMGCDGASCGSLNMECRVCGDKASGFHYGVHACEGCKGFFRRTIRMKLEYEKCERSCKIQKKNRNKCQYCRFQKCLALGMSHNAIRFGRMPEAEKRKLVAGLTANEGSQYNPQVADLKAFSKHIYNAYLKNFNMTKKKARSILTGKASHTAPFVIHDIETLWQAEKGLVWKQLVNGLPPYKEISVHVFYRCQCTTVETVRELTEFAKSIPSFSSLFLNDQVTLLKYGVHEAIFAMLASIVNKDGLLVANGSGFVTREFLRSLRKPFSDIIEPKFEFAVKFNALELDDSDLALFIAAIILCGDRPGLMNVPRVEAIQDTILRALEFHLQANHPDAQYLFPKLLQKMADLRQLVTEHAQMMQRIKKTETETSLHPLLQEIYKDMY
# assayProtocol: Agonist activity at PPARdelta (unknown origin)
Expressed in nM, but write only the number.

Solved entries (count: 2):
{"cpdSmiles": "Cc1cc(Cn2ncn(-c3ccc(C(F)(F)F)cc3)c2=O)cc(C)c1OC(C)(C)C(=O)O", "EC50 (nM)": 1.7}
{"cpdSmiles": "Cc1cc(Cn2ncn(-c3ccc(OC(F)(F)F)cc3)c2=O)cc(Cl)c1OC(C)(C)C(=O)O", "EC50 (nM)": 28.5}

// next entry
Ask | Any idea what EC50 was measured for Cc1cc(Cn2ncn(-c3ccc(C(F)(F)F)cc3)c2=O)cc(C(F)(F)F)c1OC(C)(C)C(=O)O ?
Reply | 1.4

Provenance of the data: ChEMBL document CHEMBL5042526
